system: UACC-257 melanoma; assay: NCI tumour cell line growth inhibition, 48 h; in the data active means GI50 below about 0.43 µM; inactive means the rest
Allowed answers: 1 for active, -1 for inactive

The examples below pair each entry with its known result.
Cc1ccc(-c2csc(N(C(=O)N3CCN(c4cc5c(cc4F)c(=O)c(C(=O)O)cn5C4CC4)CC3)c3ccccc3)n2)cc1
1
O=C1C(=O)c2cc([N+](=O)[O-])ccc2-c2ccccc21
-1
C[C@H](c1ccc(Cl)cc1N)N1C(=O)c2cc(I)ccc2N(CCCN2CCN(C)CC2)C(=O)[C@@H]1c1ccc(Cl)cc1
-1
COC(=O)c1cccc(NC(=O)Nc2ccc3oc(=O)c4ccccc4c3c2)c1
-1

Please find the next compound below.
Which outcome was assigned to C/C(=C\c1ccn(-c2ccc(N)c(C(F)(F)F)c2)n1)[C@@H]1C[C@@H]2O[C@]2(C)CCC[C@H](C)[C@H](O)[C@@H](C)C(=O)C(C)(C)[C@@H](O)CC(=O)O1 in this test?
-1

* * *

This listing pairs compounds with measured TGI.
system: RXF 393 renal; assay: NCI tumour cell line growth inhibition, 48 h

Record excerpt, results attached:
COC1Cc2c(C)c(OC(C)=O)c3cccnc3c2O1 (configuration not stated)
31.7 µM
CC(=O)CC(=O)N(CCN(C(=O)CC(C)=O)c1ccccc1)c1ccccc1
> 100 µM
CCOC(=O)/C(C#N)=C(/NS(=O)(=O)c1cc(C)c(Cl)cc1[S-])[n+]1ccc(N(C)C)cc1
> 100 µM
C#C[C@@]1(O)[C@@H](CO)O[C@@H](n2cc(Cl)c3c(N)ncnc32)[C@@H]1O
0.813 µM

Let's switch to this compound now.
Quick note, TGI for [N-]=[N+]=NC1(N=[N+]=[N-])C(=O)NN=C(c2ccccc2)C1=O (configuration not stated) landed at > 100 µM

* * *

test system: OVCAR-3 ovarian; test: NCI tumour cell line growth inhibition, 48 h; in the data active = GI50 below about 0.43 µM; inactive = the rest
// one of active, inactive, no free text

Example entries begin here.
CN1CCN(C(=O)c2ccc(NC(=O)Nc3ccc(N(C)c4ccnc(Nc5ccc(CS(C)(=O)=O)cc5)n4)cc3)cc2)CC1
inactive
CC(=O)O[C@H](C[C@H](C(C)C)N(C)C(=O)[C@@H](NC(=O)[C@H]1CCCCN1C)C(C)C)c1nc(C(=O)N[C@@H](Cc2ccccc2)C[C@H](C)C(=O)O)c(C)s1
active

Now for another entry.
Name the outcome recorded for CCCCCCCCN(CCCCCCCC)C(=N)c1ccnc2ccccc12 in the assay.
inactive

* * *

tested on: MOLT-4 leukemia; assay: NCI tumour cell line growth inhibition, 48 h
assay_metric: TGI

Would you please look over these solved cases?
COc1ccc(C(=O)/C=C/c2cc3ccccc3[nH]c2=O)cc1
> 100 µM
c1ccc(N/N=C2\CC(c3ccccc3)Oc3ccccc32)cc1 (stereo not drawn)
> 100 µM

Proceeding to the next compound to report its TGI.
Lab note: measured TGI of COc1ccc(OC)c(/C=C/c2nnc(Nc3ccc(Cl)cc3)o2)c1 was > 100 µM

* * *

Property: TGI; scope: individual molecules
tested on: A549 NSCLC; experiment: NCI tumour cell line growth inhibition, 48 h
Write the number in µM without appending the unit.

Nc1ncc(-c2cnn(C3CCNCC3)c2)cc1-c1nc2ccccc2o1
4.27

Would you kindly look at the next entry?
Note to self: TGI of COc1cc2c(c(OC)c1OC)-c1ccc(OC)c(=O)cc1[C@@H](NC(=O)CCl)CC2 with A549 NSCLC was 25.6
